Species on record: Homo sapiens
Experiment: Selectivity index, ratio of IC50 for inhibition of recombinant human full-length PARP-2 to IC50 for inhibition of recombinant human full-length PARP-1
Readout Label: Ratio IC50

- O=c1cc(-c2ccc(O)cc2)oc2c(CN3CCN(c4ccc(Cl)cc4)CC3)c(O)cc(O)c12: 60.8
- CC(C)CCN1CCN(Cc2c(O)cc(O)c3c(=O)cc(-c4ccc(O)cc4)oc23)CC1: 52.4
- Cc1ccc(CN2CCN(Cc3c(O)cc(O)c4c(=O)cc(-c5ccc(O)cc5)oc34)CC2)cc1: 58.8
- COc1cc(CN2CCN(Cc3c(O)cc(O)c4c(=O)cc(-c5ccc(O)cc5)oc34)CC2)cc(OC)c1: 62.5
- O=c1cc(-c2ccc(O)cc2)oc2c(CN3CCN(c4ccc(O)cc4)CC3)c(O)cc(O)c12: 73
- O=C(c1ccccc1)N1CCN(Cc2c(O)cc(O)c3c(=O)cc(-c4ccc(O)cc4)oc23)CC1: 57.2
- CC(C)C(=O)N1CCN(Cc2c(O)cc(O)c3c(=O)cc(-c4ccc(O)cc4)oc23)CC1: 55.4
- COc1ccc(C(=O)N2CCN(Cc3c(O)cc(O)c4c(=O)cc(-c5ccc(O)cc5)oc34)CC2)cc1: 57.6
- O=c1cc(-c2cccc(-c3c(O)cc(O)c4c(=O)cc(-c5cccs5)oc34)c2)oc2cc(O)cc(O)c12: 55
- Cc1ccc(-c2cc(=O)c3c(O)cc(O)c(-c4cccc(-c5cc(=O)c6c(O)cc(O)cc6o5)c4)c3o2)cc1C: 50.9
- O=c1cc(-c2ccc(O)cc2)oc2c(CN3CCN(Cc4ccco4)CC3)c(O)cc(O)c12: 72.6
- O=c1cc(-c2ccc(O)cc2)oc2c(CN3CCN(Cc4ccc(F)cc4)CC3)c(O)cc(O)c12: 58
- COc1ccc(CN2CCN(Cc3c(O)cc(O)c4c(=O)cc(-c5ccc(O)cc5)oc34)CC2)c(OC)c1OC: 55.5
- O=C(c1cccnc1)N1CCN(Cc2c(O)cc(O)c3c(=O)cc(-c4ccc(O)cc4)oc23)CC1: 57.2
- O=c1cc(-c2cccc(-c3c(O)cc(O)c4c(=O)cc(-c5ccc(F)cc5)oc34)c2)oc2cc(O)cc(O)c12: 47.4
- O=c1cc(-c2ccc(O)cc2)oc2c(CN3CCN(Cc4ccc(Cl)cc4)CC3)c(O)cc(O)c12: 57
- CC(=O)N1CCN(Cc2c(O)cc(O)c3c(=O)cc(-c4ccc(O)cc4)oc23)CC1: 70.4

###

Test: Cmax in Sprague-Dawley rat at 5 mg/kg, iv
Type: ADME, organism-based
Parameters: route intravenous, dose 5 mg/kg
Conditions: in vivo
Readout Label: Cmax (ng/mL)

* Cl.Cl.O=c1cc(-c2ccc(O)cc2)oc2c(CN3CCN(Cc4cccs4)CC3)c(O)cc(O)c12 | 2880

###

Molecular target: Poly [ADP-ribose] polymerase 2 (Homo sapiens, UniProt Q9UGN5)
Sequence (Q9UGN5 whole entry): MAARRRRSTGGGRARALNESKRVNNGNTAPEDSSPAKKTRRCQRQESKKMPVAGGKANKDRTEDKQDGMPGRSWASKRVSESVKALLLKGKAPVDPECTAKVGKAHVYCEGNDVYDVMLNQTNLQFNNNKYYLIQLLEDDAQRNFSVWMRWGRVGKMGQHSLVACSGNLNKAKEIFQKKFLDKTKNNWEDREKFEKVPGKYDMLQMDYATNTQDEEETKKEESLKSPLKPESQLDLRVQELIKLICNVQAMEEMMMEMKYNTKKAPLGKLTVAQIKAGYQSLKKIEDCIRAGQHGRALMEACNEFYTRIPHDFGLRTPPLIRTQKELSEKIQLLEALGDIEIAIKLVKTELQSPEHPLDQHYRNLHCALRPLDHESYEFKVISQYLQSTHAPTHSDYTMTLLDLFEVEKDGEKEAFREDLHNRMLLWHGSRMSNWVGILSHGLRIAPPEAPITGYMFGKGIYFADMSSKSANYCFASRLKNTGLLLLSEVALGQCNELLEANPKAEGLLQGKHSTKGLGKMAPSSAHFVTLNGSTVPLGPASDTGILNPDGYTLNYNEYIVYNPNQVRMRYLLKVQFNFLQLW
Assay: Inhibition of recombinant human full-length PARP-2 using biotinylated substrate
Listed below: IC50 values for each entry.
Readout Label: IC50 (µM)

- O=C(c1ccccc1)N1CCN(Cc2c(O)cc(O)c3c(=O)cc(-c4ccc(O)cc4)oc23)CC1: 2.9
- CC(=O)N1CCN(Cc2c(O)cc(O)c3c(=O)cc(-c4ccc(O)cc4)oc23)CC1: 3
- COC(=O)C1CCN(Cc2c(O)cc(O)c3c(=O)cc(-c4ccc(O)cc4)oc23)CC1: 6.7
- O=c1cc(-c2ccc(O)cc2)oc2c(CN3CCC(CO)CC3)c(O)cc(O)c12: 4.8
- COc1ccc(CN2CCN(Cc3c(O)cc(O)c4c(=O)cc(-c5ccc(O)cc5)oc34)CC2)c(OC)c1OC: 1.2

###

Target: UniProtKB P09874
Assay: Inhibition of recombinant human full-length PARP-1 using biotinylated substrate
pIC50: −log10 of the molar value.
Readout Label: pIC50

• O=C(OCc1ccccc1)N1CCN(Cc2c(O)cc(O)c3c(=O)cc(-c4ccc(O)cc4)oc23)CC1 = 7.36
• CC(=O)N1CCN(Cc2c(O)cc(O)c3c(=O)cc(-c4ccc(O)cc4)oc23)CC1 = 7.37
• O=C(C1CC1)N1CCN(Cc2c(O)cc(O)c3c(=O)cc(-c4ccc(O)cc4)oc23)CC1 = 7.43
• O=c1cc(-c2ccc(O)cc2)oc2c(CN3CCN(c4ccc(O)cc4)CC3)c(O)cc(O)c12 = 7.40
• O=c1cc(-c2ccc(O)cc2)oc2c(CN3CCN(Cc4ccsc4)CC3)c(O)cc(O)c12 = 7.30
• O=c1cc(-c2ccc(O)cc2)oc2c(CN3CCN(CC4CCCCC4)CC3)c(O)cc(O)c12 = 7.23
• O=C(c1ccc(Cl)cc1)N1CCN(Cc2c(O)cc(O)c3c(=O)cc(-c4ccc(O)cc4)oc23)CC1 = 7.25
• O=c1cc(-c2cccc(-c3c(O)cc(O)c4c(=O)cc(-c5ccc(O)cc5)oc34)c2)oc2cc(O)cc(O)c12 = 6.71
• COc1ccc(CN2CCN(Cc3c(O)cc(O)c4c(=O)cc(-c5ccc(O)cc5)oc34)CC2)cc1 = 7.45

###

Assay: Volume of distribution at steady state in Sprague-Dawley rat at 5 mg/kg, iv
Format: ADME, organism-based
Conditions: in vivo, read-out: Vdss
Readout Label: Vd

- Cl.Cl.O=c1cc(-c2ccc(O)cc2)oc2c(CN3CCN(Cc4cccs4)CC3)c(O)cc(O)c12: 11.4 L/kg

###

Target: Poly [ADP-ribose] polymerase 2 (Homo sapiens, UniProt Q9UGN5)
Assay: Inhibition of recombinant human full-length PARP-2 using biotinylated substrate
We label by threshold. Values of IC50 strictly beneath 2000 nM are Y. Values of 2000 nM and up are N.

• O=C(c1ccncc1)N1CCN(Cc2c(O)cc(O)c3c(=O)cc(-c4ccc(O)cc4)oc23)CC1 = Y
• O=c1cc(-c2ccc(O)cc2)oc2c(CN3CCN(c4ccc(C(F)(F)F)cc4)CC3)c(O)cc(O)c12 = N
• O=c1cc(-c2cccc(-c3c(O)cc(O)c4c(=O)cc(-c5ccc(C(F)(F)F)cc5)oc34)c2)oc2cc(O)cc(O)c12 = N
• COc1cc(CN2CCN(Cc3c(O)cc(O)c4c(=O)cc(-c5ccc(O)cc5)oc34)CC2)cc(OC)c1 = Y
• O=c1cc(-c2ccc(O)cc2)oc2c(CN3CCN(Cc4ccco4)CC3)c(O)cc(O)c12 = Y
• O=c1cc(-c2ccc(O)cc2)oc2c(CN3CCN(Cc4ccc(C(F)(F)F)cc4)CC3)c(O)cc(O)c12 = Y
• Cc1ccc(N2CCN(Cc3c(O)cc(O)c4c(=O)cc(-c5ccc(O)cc5)oc34)CC2)cc1 = N
• O=C(C1CC1)N1CCN(Cc2c(O)cc(O)c3c(=O)cc(-c4ccc(O)cc4)oc23)CC1 = N

###

Assay: Stability in rat plasma assessed as compound remaining after 0.5 hrs
Assay type: ADME, cell-free
Conditions: read-out: Stabilty
Readout Label: remaining at 0.5 h (%)

* O=c1cc(-c2ccc(O)cc2)oc2c(CN3CCN(Cc4cccs4)CC3)c(O)cc(O)c12 | 83.4

###

Test: Total plasma clearance in Sprague-Dawley rat at 5 mg/kg, iv
Assay type: ADME, organism-based
Readout Label: clearance (mL/min/kg)

* Cl.Cl.O=c1cc(-c2ccc(O)cc2)oc2c(CN3CCN(Cc4cccs4)CC3)c(O)cc(O)c12 | 60.5

###

Target: Poly [ADP-ribose] polymerase 1 (Homo sapiens)
Sequence (P09874 whole entry): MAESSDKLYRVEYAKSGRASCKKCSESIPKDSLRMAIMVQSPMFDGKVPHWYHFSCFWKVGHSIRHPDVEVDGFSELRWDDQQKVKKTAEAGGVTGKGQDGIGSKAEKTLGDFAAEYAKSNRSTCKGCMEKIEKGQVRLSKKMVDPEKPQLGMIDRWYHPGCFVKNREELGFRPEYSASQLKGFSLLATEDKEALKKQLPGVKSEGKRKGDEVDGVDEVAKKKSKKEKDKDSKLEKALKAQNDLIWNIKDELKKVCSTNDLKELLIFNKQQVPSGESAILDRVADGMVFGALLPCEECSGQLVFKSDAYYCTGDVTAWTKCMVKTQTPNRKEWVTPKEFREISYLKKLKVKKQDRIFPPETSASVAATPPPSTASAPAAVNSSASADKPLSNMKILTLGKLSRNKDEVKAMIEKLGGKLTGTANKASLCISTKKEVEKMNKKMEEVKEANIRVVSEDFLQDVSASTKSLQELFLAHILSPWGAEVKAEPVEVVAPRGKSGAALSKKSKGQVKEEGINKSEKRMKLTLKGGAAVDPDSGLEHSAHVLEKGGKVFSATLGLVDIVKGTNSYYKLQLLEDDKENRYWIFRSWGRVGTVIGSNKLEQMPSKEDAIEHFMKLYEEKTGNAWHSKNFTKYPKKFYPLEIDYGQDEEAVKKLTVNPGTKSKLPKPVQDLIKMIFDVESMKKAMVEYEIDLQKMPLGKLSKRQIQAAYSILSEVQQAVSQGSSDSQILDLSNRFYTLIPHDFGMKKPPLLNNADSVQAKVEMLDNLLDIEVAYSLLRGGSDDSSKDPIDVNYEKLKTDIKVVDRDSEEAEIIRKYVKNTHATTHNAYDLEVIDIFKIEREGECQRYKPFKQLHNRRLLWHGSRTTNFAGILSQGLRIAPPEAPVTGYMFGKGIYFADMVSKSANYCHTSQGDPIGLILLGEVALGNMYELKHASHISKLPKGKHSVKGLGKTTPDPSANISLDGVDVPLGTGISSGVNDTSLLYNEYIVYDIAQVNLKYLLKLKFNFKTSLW
Assay: Inhibition of recombinant human full-length PARP-1 using biotinylated substrate
pIC50: −log10 of the molar value.
Listed below: pIC50 values for each entry.
Readout Label: pIC50

- O=c1cc(-c2ccc(O)cc2)oc2c(CN3CCN(Cc4ccc(C(F)(F)F)cc4)CC3)c(O)cc(O)c12: 7.53
- O=c1cc(-c2ccc(O)cc2)oc2c(CN3CCN(c4ccc(C(F)(F)F)cc4)CC3)c(O)cc(O)c12: 7.30
- O=c1cc(-c2ccc(O)cc2)oc2c(CN3CCN(c4cncnc4)CC3)c(O)cc(O)c12: 7.53
- O=C(c1ccccn1)N1CCN(Cc2c(O)cc(O)c3c(=O)cc(-c4ccc(O)cc4)oc23)CC1: 7.66
- O=C(c1ccccc1)N1CCN(Cc2c(O)cc(O)c3c(=O)cc(-c4ccc(O)cc4)oc23)CC1: 7.29
- O=C(C1CCC1)N1CCN(Cc2c(O)cc(O)c3c(=O)cc(-c4ccc(O)cc4)oc23)CC1: 7.34
- Cc1ccc(-c2cc(=O)c3c(O)cc(O)c(-c4cccc(-c5cc(=O)c6c(O)cc(O)cc6o5)c4)c3o2)cc1C: 6.60
- O=c1cc(-c2ccc(O)cc2)oc2c(CN3CCN(Cc4ccco4)CC3)c(O)cc(O)c12: 7.75

###

Assay: Stability in rat plasma assessed as compound remaining after 4 hrs
Assay type: ADME, cell-free
Conditions: read-out: Stabilty
Readout Label: remaining at 4 h (%)

• O=c1cc(-c2ccc(O)cc2)oc2c(CN3CCN(Cc4cccs4)CC3)c(O)cc(O)c12 = 46.2

Hello, the source for this data is ChEMBL document CHEMBL4842357, in case you need it.
